Measured internalized pHrodo-tau in B103 cells (FACS), antibody at 3.9 µg/mL (% of maximum signal) of individual entries
biological target: pHrodo-labeled tau P301L soluble oligomer, P10636; assay: cell-based or functional assay
Sequence (P10636 other isoform, or with tags, fused parts or gaps P301L P301L): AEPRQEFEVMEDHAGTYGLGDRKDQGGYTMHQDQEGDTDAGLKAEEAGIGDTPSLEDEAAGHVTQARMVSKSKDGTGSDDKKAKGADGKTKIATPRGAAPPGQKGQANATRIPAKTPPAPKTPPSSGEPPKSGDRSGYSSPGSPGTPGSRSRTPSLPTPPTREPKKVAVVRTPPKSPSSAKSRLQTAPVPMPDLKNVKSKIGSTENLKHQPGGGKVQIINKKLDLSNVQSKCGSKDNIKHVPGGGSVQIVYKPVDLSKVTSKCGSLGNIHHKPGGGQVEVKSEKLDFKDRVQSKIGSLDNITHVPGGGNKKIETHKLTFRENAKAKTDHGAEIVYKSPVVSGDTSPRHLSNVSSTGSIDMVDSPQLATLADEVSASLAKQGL
Please reply with the number alone, leaving off any unit.

Consider the reported internalized pHrodo-tau in B103 cells (FACS), antibody at 3.9 µg/mL (% of maximum signal) for these binders:
binder="mouse 14H3 antibody (antibody, mouse IgG2a, V domains shown, here or on the partner: pHrodo label) VH: QVTLKESGPGILQPSQTLSLTCSFSGFSLSTYGMGVGWIRQPSGKGLEWLANIWWDDIKYYNAALKSRLTISKDTSKNQVFLKIASVDTADTATYYCARNVDYWGQGTTLTVSS VL: DVVMTQTPLSLPVSLGDQASISCRSSQSLVHSNGNTFLHWYLQKPGQSPKLLIYKVSNRFSGVPDRFSGSGSGTDFTLKISRVEAEDLGVYFCSQSTLVPWTFGGGTKLEIK" measured_result=63.1
binder="mouse 2D11 antibody (antibody, mouse IgG2a, V domains shown, here or on the partner: pHrodo label) VH: EVQLQQSGAELVRPGASVKLSCTASGFNIKDDYMNWVKQRPERGLEWIGWIDPENGDTEYASKFQGKATMTADTSSNTAYLQFSSLTSEDTAVYYCTTSNGWGQGTLVTVST VL: DIVMTQAAFSNPVTLGTSASISCRSSKSLLHSNGITYLYWYLQKPGQSPQLLIYQMSNLASGVPDRFSSSGSGTDFTLRISRVEAEDVGVYYCAQNLELPLTFGAGTKLELK" measured_result=43
binder="mouse 12C4 antibody (antibody, mouse IgG2a, V domains shown, here or on the partner: pHrodo label) VH: EVQLQQSGAELVRPGASVKLSCTASGFNIKDDYMNWVRQRPERGLEWIGWIDPENGDTAYASKFQGKATMTADTSSNTAYLQFSSLTSEDSAVYYCTTSNGWGQGTLVTVSA VL: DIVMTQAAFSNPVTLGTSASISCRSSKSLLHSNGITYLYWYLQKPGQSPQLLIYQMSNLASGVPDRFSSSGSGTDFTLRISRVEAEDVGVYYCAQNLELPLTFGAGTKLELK" measured_result=42.6
binder="mouse 9F5 antibody (antibody, mouse IgG1, V domains shown, here or on the partner: pHrodo label) VH: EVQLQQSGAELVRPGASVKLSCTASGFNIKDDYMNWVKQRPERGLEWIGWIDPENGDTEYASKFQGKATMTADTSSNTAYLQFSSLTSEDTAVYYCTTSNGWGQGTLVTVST VL: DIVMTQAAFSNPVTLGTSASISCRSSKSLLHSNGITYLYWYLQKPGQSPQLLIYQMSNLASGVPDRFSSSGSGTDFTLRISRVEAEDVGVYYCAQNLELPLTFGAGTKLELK" measured_result=35.9
binder="mouse 17C12 antibody (antibody, mouse IgG2a, V domains shown, here or on the partner: pHrodo label) VH: KIQLQQSGAELVRPGASVKLSCTASAFNIKDDYMNWVKQRPERGLEWIGWIDPENGDTKYASKFQGKATMTADTSSNTAYLQLSSLTSEDTAVYYCTTSNGWGQGTLVTVSA VL: DVVMTQTPLTLSVTIGQPASISCTSSQSLLHSNRKTYLHWLLQRPGQSPKLLIYLVSKLESGVPDRFSGSGSGTDFTLKISRVEAEDLGVYYCLQTTHFPRTFGGGTKLEIK" measured_result=36.8

Please turn your attention to the following entry.
internalized pHrodo-tau in B103 cells (FACS), antibody at 3.9 µg/mL (% of maximum signal) recorded for this binder, mouse 10C12 antibody (antibody, mouse IgG2a, V domains shown, here or on the partner: pHrodo label) VH: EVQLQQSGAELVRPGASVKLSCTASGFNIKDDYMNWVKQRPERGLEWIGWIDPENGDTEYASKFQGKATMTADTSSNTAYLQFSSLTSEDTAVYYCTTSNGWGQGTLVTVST VL: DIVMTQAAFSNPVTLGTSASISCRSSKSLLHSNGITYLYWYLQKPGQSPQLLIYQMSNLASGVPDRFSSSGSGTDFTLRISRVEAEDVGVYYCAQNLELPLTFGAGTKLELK , is 55.2

Just for reference, patent US20220275067A1 is where these values come from.
